// provenance: patent US20220324835A1

- study.target: Cbl-b (Homo sapiens)
- experiment.description: Cbl-b inhibition assay (Cbl-b activity assay, FRET, Biological Example 1; 100 mM NaCl, 60 nM Src kinase)
- Assay type: biochemical
- run.conditions: upper bound stated in text lists; read-out: IC50 values in the Cbl-b inhibition assay of Biological Example 1
pIC50: −log10 of the molar value.
result.type: pIC50

Record summary for Cn1cnnc1CC1(c2cccc(N3Cc4c(cc(CN5Cc6cccnc6C5)cc4C(F)(F)F)C3=O)c2)COC1 [Example 660] : reported pIC50 = ≥ 7.00

Measured pIC50, Cn1cnnc1CC1(c2cccc(N3Cc4c(cc(CN5CCOC(C6CC6)C5)cc4C(F)(F)F)C3=O)c2)COC1 (centres unmarked) [Example 718] : ≥ 7.00

The reported pIC50 of the compound CN1C[C@H]2C[C@@H]1CN2c1cc2c(c(C(F)(F)F)c1)CN(c1cccc(C3(Cc4nncn4C)COC3)c1)C2=O [Example 569] was ≥ 7.00

Value of pIC50 reported for the compound CC1CCc2c1n[nH]c2C(=O)Nc1cccc([C@H](C)Cc2nncn2C)c1 (some centres unmarked) [Compound 323] is ≥ 6.52

pIC50 reported for this compound C[C@H](Cc1nncn1C)c1cccc(NC(=O)c2cc(N[C@@H]3CC[C@H](O)C3)ccn2)c1 [Compound 204] : ≥ 5.00

Input Cn1cnnc1CC1(c2cccc(N3Cc4c(cc(CN5CCC[C@@H](F)C5)cc4C(F)(F)F)C3=O)c2)COC1 [Example 623] . Output pIC50: ≥ 7.00

Sure, the documented pIC50 for Cn1cnnc1C[C@H](c1cccc(N2Cc3c(cccc3C(F)(F)F)C2=O)c1)C(F)F [Example 617] is ≥ 6.52

Value of measured pIC50 for the entry C[C@H](Cc1nncn1C)c1cccc(N2Cc3c(cc(-n4cccn4)cc3C(F)(F)F)C2=O)c1 [Compound 384] : ≥ 7.00

// recorded pIC50 for Cn1cnnc1CC1(c2cccc(N3Cc4c(cc(CN5CC[C@@H](C#N)C5)cc4C(F)(F)F)C3=O)c2)COC1 [Compound 421] : ≥ 7.00

Short answer for Cn1cnnc1CC1(c2cccc(N3Cc4c(cc(CN5CCCC(F)(F)CC5)cc4C(F)(F)F)C3=O)c2)COC1 [Compound 528] : pIC50 was ≥ 7.00

Per the record, Cn1cnnc1CC1(c2cccc(N3Cc4c(cc(CN5CCC6CC6C5)cc4C(F)(F)F)C3=O)c2)COC1 (centres unmarked) [Example 646] has pIC50 of ≥ 7.00

Summary for this compound, COc1cccc2c1CN(Cc1cc3c(c(C(F)(F)F)c1)CN(c1cccc(C4(Cc5nncn5C)COC4)c1)C3=O)C2 [Example 702] : pIC50 is ≥ 7.00

Briefly, pIC50 measured for Cn1cnnc1CC1(c2cccc(N3Cc4c(cc(CN5CC[C@@H](F)[C@@H](F)C5)cc4C(F)(F)F)C3=O)c2)COC1 (relative stereo) [Example 634] : ≥ 7.00

The reported pIC50 of the compound Cn1cnnc1[C@@H](F)[C@](C)(F)c1cccc(N2Cc3c(cccc3C(F)(F)F)C2=O)c1 (stereo in doubt) [Compound 480] was ≥ 6.52

----------
Exercise: for every item that follows, state its recorded IC50.
- study.target: Cbl-b (Homo sapiens, UniProt Q13191)
- Sequence (Q13191 36-427): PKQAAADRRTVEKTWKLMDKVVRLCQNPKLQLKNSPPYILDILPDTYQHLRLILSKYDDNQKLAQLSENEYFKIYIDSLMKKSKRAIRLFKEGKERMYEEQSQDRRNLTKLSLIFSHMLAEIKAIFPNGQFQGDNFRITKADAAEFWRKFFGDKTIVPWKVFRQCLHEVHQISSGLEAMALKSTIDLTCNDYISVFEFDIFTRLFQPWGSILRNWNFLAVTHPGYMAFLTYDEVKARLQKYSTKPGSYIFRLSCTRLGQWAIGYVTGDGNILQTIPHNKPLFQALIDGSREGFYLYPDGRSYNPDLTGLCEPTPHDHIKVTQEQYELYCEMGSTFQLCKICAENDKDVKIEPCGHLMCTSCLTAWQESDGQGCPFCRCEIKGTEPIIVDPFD
- experiment.description: Cbl-b activity assay (Cbl-b inhibition assay), TR-FRET of Cbl-b interaction with UbcH5B-Ub
- Assay type: biochemical
- run.conditions: assay buffer with 100 mM NaCl, 60 nM Src kinase; read-out: Cbl-b activity IC50
- Description: The ability of candidate compounds to inhibit Cbl-b activity was measured by monitoring the interaction of Cbl-b with UbcH5B-Ub in the presence of the candidate compound. Fluorescently labeled UbcH5B-Ub was prepared by conjugating ubiquitin (Ub), labeled at its N-terminus with Bodipy-Fluorescein, to UbcH5B, an E2 enzyme, harboring a cysteine to lysine mutation at position 85. […]

Tested on Cbl-b (Homo sapiens, UniProt Q13191), the item Cc1cc(C(=O)Nc2cccc(C(C)(C)Cc3nncn3C)c2)nc(C2CC2)n1 showed IC50 equal to < 100 nM

Considering Cn1cnnc1CC1(c2cccc(N3Cc4c(cc(CN5CCOC(C(F)F)C5)cc4C(F)(F)F)C3=O)c2)COC1 (stereo not drawn) , its IC50 with Cbl-b (Homo sapiens, UniProt Q13191) was recorded as < 100 nM

Field IC50 (Cbl-b (Homo sapiens, UniProt Q13191)), entry C[C@H](Cc1ncn(C)n1)c1cccc(N2Cc3c(cccc3C(F)(F)F)C2=O)c1 : 3000 to 10000 nM

Measured IC50 (Cbl-b (Homo sapiens, UniProt Q13191)), entry C[C@H](Sc1nncn1C)c1ccnc(NC(=O)c2cccc(C(C)(F)F)n2)c1 : 301 to 1000 nM

Reading of IC50 for C[C@@H]1CCN(Cc2cc3c(c(C(F)(F)F)c2)CN(c2cccc(C4(Cc5nncn5C)COC4)c2)C3=O)C[C@@H]1F [Example 639a] with Cbl-b (Homo sapiens, UniProt Q13191): < 100 nM

# IC50 measured on Cbl-b (Homo sapiens, UniProt Q13191) for item Cn1cnnc1C(F)(F)[C@@](C)(F)c1cccc(N2Cc3c(cccc3C(F)(F)F)C2=O)c1 [Compound 296b] = 3000 to 10000 nM

Fill in: Cbl-b (Homo sapiens, UniProt Q13191) IC50 for Cn1cnnc1CC1(c2cccc(NC(=O)c3csc(C4CC4)n3)c2)COC1 = 100 to 300 nM

Entry CN(C)Cc1cc(C(=O)Nc2cccc(C3(Cc4nncn4C)COC3)c2)nc(C2CC2)n1 , Cbl-b (Homo sapiens, UniProt Q13191) data, IC50 value: < 100 nM

IC50 of C[C@H](Sc1nncn1C)c1ccnc(NC(=O)c2nc3ccccc3s2)c1 , assay on Cbl-b (Homo sapiens, UniProt Q13191), is 3000 to 10000 nM

Note to self: IC50 of C[C@H](Cc1nncn1C)c1cccc(NC(=O)c2cc(C(=O)N3CCC(O)C3(C)C)ccn2)c1 (stereo partly drawn) with Cbl-b (Homo sapiens, UniProt Q13191) was 1000 to 3000 nM

Measured IC50 (Cbl-b (Homo sapiens, UniProt Q13191)), entry Cn1cnnc1C(F)(F)[C@](C)(F)c1cccc(N2Cc3c(cc(C(=O)N4CC[C@H](O)C4)cc3C(F)(F)F)C2=O)c1 : < 100 nM

Measured on Cbl-b (Homo sapiens, UniProt Q13191), Cn1cnnc1CC1(c2cccc(N3Cc4c(cc(CN5CCOC(CF)C5)cc4C(F)(F)F)C3=O)c2)COC1 (stereo not drawn) has a documented IC50 of < 100 nM

Form field IC50 for item C[C@H](Cc1nncn1C)c1cccc(NC(=O)c2cc(C(=O)N3CC[C@H](O)C3)cc(C(F)(F)F)n2)c1 on Cbl-b (Homo sapiens, UniProt Q13191): < 100 nM

# lookup: CC(Cc1nccn1C)c1cccc(NC(=O)c2cc(C(=O)N3CC[C@H](O)C3)ccn2)c1 (stereo partly drawn) on Cbl-b (Homo sapiens, UniProt Q13191), IC50 = 3000 to 10000 nM

Reported Cbl-b (Homo sapiens, UniProt Q13191) IC50 for item C[C@@H](c1cc2c(c(C(F)(F)F)c1)CN(c1cccc(C3(Cc4nncn4C)COC3)c1)C2=O)N1C[C@H]2C[C@H]2C1 [Compound 541a] was < 100 nM

----------
- Tested on: T-cell
- experiment.description: IL-2 secretion from T-cells co-stimulated with anti-CD3 and anti-CD28 antibody (Biological Example 2)
- Format: cell-based, human
- run.conditions: Homo sapiens, T-cell; 1 μM Cbl-b inhibitor; fold change over baseline (anti-CD3/anti-CD28 stimulated T-cells without inhibitor); read-out: IL-2 secretion Anti-CD3/Anti-CD28 stimulation
Give fold induction at 1 µM for every item shown.

Entry Cn1cnnc1CC1(c2cccc(N3Cc4c(cc(N5CC(C(F)(F)F)C5)cc4C(F)(F)F)C3=O)c2)COC1 [Example 600] — recorded fold induction at 1 µM = > 7.5

Reported fold induction at 1 µM for C[C@H](c1cc2c(c(C(F)(F)F)c1)CN(c1cccc(C3([C@@H](F)c4nncn4C)COC3)c1)C2=O)N1CCC2(CC2)C1 [Example 576] was > 7.5

For reference, reported fold induction at 1 µM for Cn1cnnc1CC1(c2cccc(N3Cc4c(cc(CN5Cc6cccnc6C5)cc4C(F)(F)F)C3=O)c2)COC1 [Example 660] stands at > 7.5

Note to self: fold induction at 1 µM recorded for Cn1cnnc1CC1(c2cccc(N3Cc4c(cc(CN5CCC(C)(C#N)CC5)cc4C(F)(F)F)C3=O)c2)COC1 [Example 642] was > 7.5

Reported fold induction at 1 µM for CCN1CCN(Cc2cc3c(c(C(F)(F)F)c2)CN(c2cccc(C4(Cc5nncn5C)COC4)c2)C3=O)CC1 [Example 624] was > 7.5

Entry Cc1cc(C(=O)Nc2cccc(C3(Cc4nncn4C)COC3)c2)n2nc(C(F)(F)F)cc2n1 [Example 598] , fold induction at 1 µM reported as 1.01 to 2.5

fold induction at 1 µM recorded for this molecule, Cc1cnn2c(C(=O)Nc3cccc(C4(Cc5nncn5C)COC4)c3)cc(C(F)(F)F)nc12 [Example 599] , is 1.01 to 2.5

The molecule CC1C(C(F)(F)F)CCN1Cc1cc2c(c(C(F)(F)F)c1)CN(c1cccc(C3(Cc4nncn4C)COC3)c1)C2=O (centres unmarked) [Example 588] showed fold induction at 1 µM equal to > 7.5

Memo: CCOc1cc(NC(=O)c2cc(C)nc(C3CC3)n2)cc(C2(Cc3nncn3C)COC2)c1 [Example 690] , reported fold induction at 1 µM: 5 to 7.5

fold induction at 1 µM reported for this molecule CN1C[C@H]2C[C@@H]1CN2c1cc2c(c(C(F)(F)F)c1)CN(c1cccc(C3(Cc4nncn4C)COC3)c1)C2=O [Example 569] : > 7.5

get_value(item= C[C@H](Cc1nncn1C)c1cc(-c2cn[nH]c2)nc(N2Cc3c(cccc3C(F)(F)F)C2=O)c1 [Example 684] , readout=fold induction at 1 µM) returns < 1

fold induction at 1 µM measured on COc1cccc2c1CN(Cc1cc3c(c(C(F)(F)F)c1)CN(c1cccc(C4(Cc5nncn5C)COC4)c1)C3=O)C2 [Example 702] = > 7.5

Recorded fold induction at 1 µM (molecule Cn1cnnc1CC1(c2cccc(N3Cc4c(cc(CN5CCC(C#N)CC5)cc4C(F)(F)F)C3=O)c2)COC1 [Example 628] ): > 7.5

The molecule listed as Cn1cnnc1CC1(c2cccc(N3Cc4c(cc(N5CCOC5=O)cc4C(F)(F)F)C3=O)c2)COC1 [Example 561] has a reported fold induction at 1 µM of 2.51 to 5
